# tested.target: LHRH receptor (LHRH binding sites) on EFO-27 human ovarian cancer cells (human)
# test.method.notes: direct binding of 177Lu-labeled peptide to EFO-27 cells, single concentration
Non-standard residues stand in square brackets, D forms with d. Bpa = N[C@@H](Cc1ccc(C(=O)c2ccccc2)cc1)C(=O)O; d1Nal = N[C@H](Cc1cccc2ccccc12)C(=O)O; DO3A10CM = not defined here; azaGly = NNC(=O)O; Sar = CNCC(=O)O
measured.metric: % Bound (%)
The response must be a number in % with no trailing unit.

Below, each entry is followed by its recorded % Bound result.
# binder, readout.unit, % Bound
records = [
    ("XRWSHXWXPX (177Lu held by the N-terminal DO3A10CM: 177Lu-DO3A10CM-Dnal2-Arg-Trp-Ser-His-Darg-Trp-Bpa4-Pro-azaGly-NH2) [^177Lu-BRU-2813]", "%", 18.8),
    ("DO3A10CM-[Sar]HWSH[dR]WYP[azaGly]-NH2 (reading uncertain; also: 177Lu complexed by DO3A10CM, printed as 177Lu-DO3A10CM-Sar-His-Trp-Ser-His-Darg-Trp-Tyr-Pro-azaGly-NH2) [^177Lu-BRU-2440]", "%", 0.21),
    ("DO3A10CM-G[d1Nal]HWSH[dR]W[Bpa]P[azaGly]-NH2 (reading uncertain; also: 177Lu complexed by DO3A10CM, printed as 177Lu-DO3A10CM-Gly-Dnal1-His-Trp-Ser-His-Darg-Trp-Bpa4-Pro-azaGly-NH2) [^177Lu-BRU-2766]", "%", 10.3),
]

Suppose we examine the binder XXHWSHXWXPX (177Lu held by the N-terminal DO3A10CM: 177Lu-DO3A10CM-Gly-Abz4-Sar-His-Trp-Ser-His-Darg-Trp-Bpa4-Pro-azaGly-NH2) [^177Lu-BRU-2696] ; what % Bound value has been reported?
0.94
